# MEASUREMENT_DESCRIPTION: Metabolic stability in human liver microsomes assessed as half life at 1 uM
# Type: ADME, Microsome
READOUT: half-life at 1 µM (min)
// note: answer is a bare numeric in min

Please review the entries below; each comes with its answer.
Cc1c(O)c2ccc3c(c2oc1=O)[C@@H](OC(=O)C12CCC(C)(C(=O)O1)C2(C)C)[C@@H](OC(=O)C12CCC(C)(C(=O)O1)C2(C)C)C(C)(C)O3 (some centres undefined) ... 3.5
Cc1cc(=O)oc2c3c(ccc12)OC(C)(C)[C@H](OC(=O)C12CCC(C)(C(=O)O1)C2(C)C)[C@@H]3OC(=O)C12CCC(C)(C(=O)O1)C2(C)C (some centres undefined) ... 3.4
Cc1cc(=O)oc2c3c(ccc12)NC(C)(C)[C@H](OC(=O)C12CCC(C)(C(=O)O1)C2(C)C)[C@@H]3OC(=O)C12CCC(C)(C(=O)O1)C2(C)C (some centres undefined) ... 9.6

Read the next record carefully.
For Cc1cc(=O)oc2c3c(c(O)cc12)OC(C)(C)[C@H](OC(=O)C12CCC(C)(C(=O)O1)C2(C)C)[C@@H]3OC(=O)C12CCC(C)(C(=O)O1)C2(C)C (some centres undefined) , what is its reported half-life at 1 µM?
3.1
